folding stability dG values by entry
B1: r11_951_TrROS_Hall (parent)
chain: KKKYVIKVYFEDTGKEVEIEAESKEEALEAAKRLAEELGLKIKKVEIYP

Variants of: B1
Experiment: folding stability dG (cDNA display proteolysis); higher = more stable
Settings: PBS, room temperature

{"columns": ["Variant descriptor", "folding stability dG / kcal/mol"],
 "data": [
  ["P49W", 4.59],
  ["E25C", 4.28],
  ["K32W", 4.78],
  ["A27E", 1.78],
  ["F10C", 3.67],
  ["L34C", 3.85],
  ["I47A", 4.17],
  ["I47C", 4.13],
  ["V17K", 4.07],
  ["E20F", 4.25],
  ["F10Y", 3.94],
  ["E16N", 4.44],
  ["Y48V", 4.45],
  ["G14R", 4.05],
  ["A21S", 4.7],
  ["A21K", 4.29],
  ["K3A", 4.46],
  ["I47T", 4.17],
  ["I6M", 4.46],
  ["I42N", 2.55],
  ["F10I", 3.28],
  ["P49Y", 4.78],
  ["A27L", 4.34],
  ["G14N", 4.43],
  ["T13N", 4.58],
  ["E18I", 4.61],
  ["K3I", 4.27],
  ["K3T", 4.4],
  ["K7G", 3.32],
  ["K3R", 4.26],
  ["A21N", 3.84],
  ["Y4T", 3.74],
  ["K32I", 4.34],
  ["E25G", 4.15],
  ["R33C", 4.17],
  ["E36S", 4.53],
  ["I6C", 3.63],
  ["G39A", 4.49],
  ["K2A", 4.43],
  ["K44G", 4.12],
  ["L40D", 3.85],
  ["I47E", 4.33],
  ["T13G", 4.52],
  ["P49G", 4.49],
  ["V8E", 0.978],
  ["A35E", 4.05]
]}
